- EXPERIMENTAL_CONDITIONS: in n-propanol, 303.15 K
ENDPOINT_NAME: solubility (mole fraction)
# respond with the number and nothing more

Ask: Read off the recorded solubility (mole fraction) for `CC(C)(C)OC(=O)N1CCC[C@H]1C(=O)O`
Reply: 0.132

---

- EXPERIMENTAL_CONDITIONS: in n-butanol, 323.15 K
ENDPOINT_NAME: solubility (mole fraction)
Answer with a number only.

Ask: Give solubility (mole fraction) for the following molecule: `CC(C)(C)OC(=O)N1CCC[C@H]1C(=O)O`
Reply: 0.178

---

- EXPERIMENTAL_CONDITIONS: in dichloromethane, 293.15 K
ENDPOINT_NAME: solubility (mole fraction)
A bare number is all that is needed in reply.

Ask: Output solubility (mole fraction) of `CC(C)(C)OC(=O)N1CCC[C@H]1C(=O)O`
Reply: 0.107

---

- EXPERIMENTAL_CONDITIONS: in isobutanol, 293.15 K
ENDPOINT_NAME: solubility (mole fraction)
Write no unit; give the number alone.

Ask: Supply solubility (mole fraction) value. Item: `CC(C)(C)OC(=O)N1CCC[C@H]1C(=O)O`
Reply: 0.0942

---

- EXPERIMENTAL_CONDITIONS: in isobutanol, 313.15 K
ENDPOINT_NAME: solubility (mole fraction)

Ask: Tell me its solubility (mole fraction) given `CC(C)(C)OC(=O)N1CCC[C@H]1C(=O)O` as the entry.
Reply: 0.143

---

- EXPERIMENTAL_CONDITIONS: in methanol, 323.15 K
ENDPOINT_NAME: solubility (mole fraction)
Give the figure only, with no unit attached.

Ask: Quick one: give measured solubility (mole fraction) for `CC(C)(C)OC(=O)N1CCC[C@H]1C(=O)O`
Reply: 0.297

---

- EXPERIMENTAL_CONDITIONS: in sec-butanol, 283.15 K
ENDPOINT_NAME: solubility (mole fraction)
Would you mind answering with just the numeric figure?

Ask: Give the measured solubility (mole fraction) for `CC(C)(C)OC(=O)N1CCC[C@H]1C(=O)O`
Reply: 0.0968

---

- EXPERIMENTAL_CONDITIONS: in ethyl acetate, 293.15 K
ENDPOINT_NAME: solubility (mole fraction)

Ask: Consider the compound `CC(C)(C)OC(=O)N1CCC[C@H]1C(=O)O` . State its measured solubility (mole fraction).
Reply: 0.0303

---

- EXPERIMENTAL_CONDITIONS: in methyl acetate, 313.15 K
ENDPOINT_NAME: solubility (mole fraction)
Just the number, please, no unit attached.

Ask: State its solubility (mole fraction): `CC(C)(C)OC(=O)N1CCC[C@H]1C(=O)O`
Reply: 0.055

---

- EXPERIMENTAL_CONDITIONS: in isopropanol, 323.15 K
ENDPOINT_NAME: solubility (mole fraction)
// no unit, no text: just the number

Ask: Supply solubility (mole fraction) value. Item: `CC(C)(C)OC(=O)N1CCC[C@H]1C(=O)O`
Reply: 0.208

---

- EXPERIMENTAL_CONDITIONS: in water, 323.15 K
ENDPOINT_NAME: solubility (mole fraction)
Just the number, please.

Ask: Note solubility (mole fraction) for the molecule shown: `CC(C)(C)OC(=O)N1CCC[C@H]1C(=O)O`
Reply: 0.00144
